Test system: ABC-1
Test: relative viability (nuclei count vs DMSO), 5 days (fraction); higher = more cells survive
Details: first compound 0.006325 µM
Could you please report measured relative viability for the items listed next?
Answers are plain numbers.

{"COMPOUND": "CCNC(=O)c1noc(-c2cc(C(C)C)c(O)cc2O)c1-c1ccc(CN2CCOCC2)cc1 [Luminespib] + N=C(N)NC(=N)NCCc1ccccc1 [Phenformin] (partner 250 µM)", "MEASUREMENT TYPE": "relative viability", "QUANTITATIVE READOUT": 0.272}
{"COMPOUND": "CCNC(=O)c1noc(-c2cc(C(C)C)c(O)cc2O)c1-c1ccc(CN2CCOCC2)cc1 [Luminespib] + COc1cc2c(Oc3ccc(NC(=O)C4(C(=O)Nc5ccc(F)cc5)CC4)cc3F)ccnc2cc1OCCCN1CCOCC1 [Foretinib] (partner 0.25 µM)", "MEASUREMENT TYPE": "relative viability", "QUANTITATIVE READOUT": 0.881}

Okay, next one:
Would you kindly share the measured relative viability for CCNC(=O)c1noc(-c2cc(C(C)C)c(O)cc2O)c1-c1ccc(CN2CCOCC2)cc1 [Luminespib] + CS(=O)(=O)CCNCc1ccc(-c2ccc3ncnc(Nc4ccc(OCc5cccc(F)c5)c(Cl)c4)c3c2)o1 [Lapatinib] (partner 2 µM) ?
0.964

* * *

System: HCC-366
Assay: relative viability (nuclei count vs DMSO), 5 days (fraction); higher = more cells survive
Settings: first compound 0.253 µM
MEASUREMENT TYPE: relative viability
Numbers only.

Example molecules with recorded relative viability:
{"MOLECULE": "Nc1cccc2c1CN(C1CCC(=O)NC1=O)C2=O (configuration not stated) [Lenalidomide] + C[C@@H](Oc1cc(-c2cnn(C3CCNCC3)c2)cnc1N)c1c(Cl)ccc(F)c1Cl [Crizotinib] (partner 1 µM)", "relative viability": 0.56}
{"MOLECULE": "Nc1cccc2c1CN(C1CCC(=O)NC1=O)C2=O (configuration not stated) [Lenalidomide] + CC(=O)c1c(C)c2cnc(Nc3ccc(N4CCNCC4)cn3)nc2n(C2CCCC2)c1=O [Palbociclib] (partner 0.5 µM)", "relative viability": 0.437}
{"MOLECULE": "Nc1cccc2c1CN(C1CCC(=O)NC1=O)C2=O (configuration not stated) [Lenalidomide] + CC(=O)Nc1cccc(-n2c(=O)n(C3CC3)c(=O)c3c(Nc4ccc(I)cc4F)n(C)c(=O)c(C)c32)c1 [Trametinib] (partner 0.02 µM)", "relative viability": 0.33}

Dear colleague, could you please provide relative viability for the molecules listed below?
1. Nc1cccc2c1CN(C1CCC(=O)NC1=O)C2=O (configuration not stated) [Lenalidomide] + Cc1cc(Nc2cc(N3CCN(C)CC3)nc(Sc3ccc(NC(=O)C4CC4)cc3)n2)n[nH]1 [Tozasertib] (partner 0.1 µM)
2. Nc1cccc2c1CN(C1CCC(=O)NC1=O)C2=O (configuration not stated) [Lenalidomide] + Nc1ncn([C@H]2C[C@H](O)[C@@H](CO)O2)c(=O)n1 [Decitabine] (partner 2 µM)
3. Nc1cccc2c1CN(C1CCC(=O)NC1=O)C2=O (configuration not stated) [Lenalidomide] + O=C(CCCCCCC(=O)Nc1ccccc1)NO [Vorinostat] (partner 1 µM)

1: 0.14; 2: 0.337; 3: 0.335

Would you kindly share the measured relative viability for Nc1cccc2c1CN(C1CCC(=O)NC1=O)C2=O (configuration not stated) [Lenalidomide] + C[C@]1(O)C[C@@H](c2nc(-c3ccc4ccc(-c5ccccc5)nc4c3)c3c(N)nccn32)C1 [Linsitinib] (partner 1 µM) ?
0.689

* * *

Tested on: NCI-H650
Assay: relative viability (nuclei count vs DMSO), 5 days (fraction); higher = more cells survive
Conditions: first compound 2 µM
MEASUREMENT TYPE: relative viability
Give bare numbers.

{"COMPOUND": "Cc1csc(=NC2CCCCC2)n1/N=C/c1ccc(O)c(O)c1O [MIM1] + Nc1ncn([C@H]2C[C@H](O)[C@@H](CO)O2)c(=O)n1 [Decitabine] (partner 2 µM)", "TGT": "NCI-H650", "QUANTITATIVE READOUT": 0.345}
{"COMPOUND": "CN1CCN(CCOc2cc(OC3CCOCC3)c3c(Nc4c(Cl)ccc5c4OCO5)ncnc3c2)CC1 [Saracatinib] + O=C(c1cc(Cc2n[nH]c(=O)c3ccccc23)ccc1F)N1CCN(C(=O)C2CC2)CC1 [Olaparib] (partner 8 µM)", "TGT": "NCI-H650", "QUANTITATIVE READOUT": 0.432}
{"COMPOUND": "CN1CCN(CCOc2cc(OC3CCOCC3)c3c(Nc4c(Cl)ccc5c4OCO5)ncnc3c2)CC1 [Saracatinib] + CC(=O)Nc1cccc(-n2c(=O)n(C3CC3)c(=O)c3c(Nc4ccc(I)cc4F)n(C)c(=O)c(C)c32)c1 [Trametinib] (partner 0.02 µM)", "TGT": "NCI-H650", "QUANTITATIVE READOUT": 0.92}

Would you kindly share the measured relative viability for CN1CCN(CCOc2cc(OC3CCOCC3)c3c(Nc4c(Cl)ccc5c4OCO5)ncnc3c2)CC1 [Saracatinib] + Nc1ncn([C@H]2C[C@H](O)[C@@H](CO)O2)c(=O)n1 [Decitabine] (partner 2 µM) ?
0.288

* * *

System: NCI-H441
Experiment: relative viability (nuclei count vs DMSO), 5 days (fraction); higher = more cells survive
Conditions: first compound 0.2 µM
Could you please report measured relative viability for the items listed next?
Give bare numbers.

{"COMPOUND": "CCNC(=O)c1noc(-c2cc(C(C)C)c(O)cc2O)c1-c1ccc(CN2CCOCC2)cc1 [Luminespib] + CC1(C)CCC(c2ccc(Cl)cc2)=C(CN2CCN(c3ccc(C(=O)NS(=O)(=O)c4ccc(N[C@H](CCN5CCOCC5)CSc5ccccc5)c(S(=O)(=O)C(F)(F)F)c4)cc3)CC2)C1 [Navitoclax] (partner 0.5 µM)", "QUANTITATIVE READOUT": 0.161}

Dear colleague, could you please provide relative viability for the compounds listed below?
1. CN1CCN(CCOc2cc(OC3CCOCC3)c3c(Nc4c(Cl)ccc5c4OCO5)ncnc3c2)CC1 [Saracatinib] + Cc1nc(Nc2ncc(C(=O)Nc3c(C)cccc3Cl)s2)cc(N2CCN(CCO)CC2)n1 [Dasatinib] (partner 0.075 µM)
2. Cc1csc(=NC2CCCCC2)n1/N=C/c1ccc(O)c(O)c1O [MIM1] + CS(=O)(=O)N1CCN(Cc2cc3nc(-c4cccc5[nH]ncc45)nc(N4CCOCC4)c3s2)CC1 [Pictilisib] (partner 1 µM)
3. CCNC(=O)c1noc(-c2cc(C(C)C)c(O)cc2O)c1-c1ccc(CN2CCOCC2)cc1 [Luminespib] + Cc1nc(Nc2ncc(C(=O)Nc3c(C)cccc3Cl)s2)cc(N2CCN(CCO)CC2)n1 [Dasatinib] (partner 0.075 µM)
4. CCNC(=O)c1noc(-c2cc(C(C)C)c(O)cc2O)c1-c1ccc(CN2CCOCC2)cc1 [Luminespib] + COc1cc2c(Oc3ccc(NC(=O)C4(C(=O)Nc5ccc(F)cc5)CC4)cc3F)ccnc2cc1OCCCN1CCOCC1 [Foretinib] (partner 0.25 µM)
5. Cc1csc(=NC2CCCCC2)n1/N=C/c1ccc(O)c(O)c1O [MIM1] + CC(=O)c1c(C)c2cnc(Nc3ccc(N4CCNCC4)cn3)nc2n(C2CCCC2)c1=O [Palbociclib] (partner 0.5 µM)
6. CCNC(=O)c1noc(-c2cc(C(C)C)c(O)cc2O)c1-c1ccc(CN2CCOCC2)cc1 [Luminespib] + CC(=O)Nc1cccc(-n2c(=O)n(C3CC3)c(=O)c3c(Nc4ccc(I)cc4F)n(C)c(=O)c(C)c32)c1 [Trametinib] (partner 0.02 µM)

0.442
0.541
0.114
0.149
0.273
0.11

Dear colleague, could you please provide relative viability for the compounds listed below?
1. CN1CCN(CCOc2cc(OC3CCOCC3)c3c(Nc4c(Cl)ccc5c4OCO5)ncnc3c2)CC1 [Saracatinib] + CC(=O)c1c(C)c2cnc(Nc3ccc(N4CCNCC4)cn3)nc2n(C2CCCC2)c1=O [Palbociclib] (partner 0.5 µM)
2. Cc1csc(=NC2CCCCC2)n1/N=C/c1ccc(O)c(O)c1O [MIM1] + Cc1nc(NC(=O)N2CCC[C@H]2C(N)=O)sc1-c1ccnc(C(C)(C)C(F)(F)F)c1 [Alpelisib] (partner 2 µM)
3. Cc1csc(=NC2CCCCC2)n1/N=C/c1ccc(O)c(O)c1O [MIM1] + O=C(CCCCCCC(=O)Nc1ccccc1)NO [Vorinostat] (partner 1 µM)
4. Cc1csc(=NC2CCCCC2)n1/N=C/c1ccc(O)c(O)c1O [MIM1] + C[C@]1(O)C[C@@H](c2nc(-c3ccc4ccc(-c5ccccc5)nc4c3)c3c(N)nccn32)C1 [Linsitinib] (partner 1 µM)
5. Cc1csc(=NC2CCCCC2)n1/N=C/c1ccc(O)c(O)c1O [MIM1] + CC(C)C[C@H](NC(=O)[C@H](Cc1ccccc1)NC(=O)c1cnccn1)B(O)O [Bortezomib] (partner 0.002 µM)
6. CCNC(=O)c1noc(-c2cc(C(C)C)c(O)cc2O)c1-c1ccc(CN2CCOCC2)cc1 [Luminespib] + CC(C)C[C@H](NC(=O)[C@H](Cc1ccccc1)NC(=O)c1cnccn1)B(O)O [Bortezomib] (partner 0.002 µM)

0.196
0.75
0.748
0.612
0.593
0.133

What measured relative viability is associated with Cc1csc(=NC2CCCCC2)n1/N=C/c1ccc(O)c(O)c1O [MIM1] + Nc1nc2[nH]cc(CCc3ccc(C(=O)N[C@@H](CCC(=O)O)C(=O)O)cc3)c2c(=O)[nH]1 [Pemetrexed] (partner 0.2 µM) on NCI-H441?
0.259
